- protocol: Plasma concentrations of BVDU, BVU and GEM in patients of the dose finding study (HPLC)
- Assay type: in vivo, human
- applied.conditions: both sexes, human, plasma, po, dose level 10500 mg; 3.0 hr; day 1; oral BVDU; read-out: BVDU plasma concentration, Median
assay.readout: concentration at 3 h (ng/mL)
Lab book: enter the figure in ng/mL, no units written.

Input O=c1[nH]c(=O)n([C@H]2C[C@H](O)[C@@H](CO)O2)cc1/C=C/Br [BVDU, (E)-5-(2-bromovinyl)-2′-deoxyuridine] . Output concentration at 3 h: 279

---

- protocol: Plasma concentrations of BVDU, BVU and GEM in patients of the dose finding study (HPLC)
- Assay type: in vivo, human
- applied.conditions: both sexes, human, plasma, po, dose level 12000 mg; 1.0 hr; day 1; oral BVDU; read-out: BVDU plasma concentration, Median
assay.readout: concentration at 1 h (ng/mL)
Give just the number in ng/mL; leave the unit off.

Record O=c1[nH]c(=O)n([C@H]2C[C@H](O)[C@@H](CO)O2)cc1/C=C/Br [BVDU, (E)-5-(2-bromovinyl)-2′-deoxyuridine] , field concentration at 1 h: 1020

---

- protocol: Plasma concentrations of BVDU, BVU and GEM in patients of the dose finding study (HPLC)
- Format: in vivo, human
- applied.conditions: human, plasma, po, dose level 7500 mg; 0.5 hr; day 1; oral BVDU; read-out: BVDU plasma concentration, Median
- Method: Dose finding study: 22 Patients with advanced pancreatic adenocarcinoma were eligible for treatment in this single arm study. The mean age was 60 years and 73% of patients were males. One patient without progressive disease was excluded from the study for withdrawal of consent after the first cycle. Of the 21 patients left, 15 were in stage IV and 6 in stage III. BVDU was administered in a combination with GEM. On day 1, on day 8 and on day 15 of each 28-day cycle, BVDU was given together with GEM. […]
assay.readout: concentration at 0.5 h
Remember to quote the unit after the number.

Lab note: measured concentration at 0.5 h of O=c1[nH]c(=O)n([C@H]2C[C@H](O)[C@@H](CO)O2)cc1/C=C/Br [BVDU, (E)-5-(2-bromovinyl)-2′-deoxyuridine] was 1130 ng/mL

---

- protocol: Plasma concentrations of BVDU, BVU and GEM in patients of the dose finding study (HPLC)
- Assay type: in vivo, human
- applied.conditions: both sexes, human, plasma, po, dose level 10500 mg; 0.0 hr; day 1; oral BVDU; read-out: BVDU plasma concentration, Median
assay.readout: concentration at 0 h (ng/mL)
Numeric only. Scale: ng/mL

Lab book: concentration at 0 h of O=c1[nH]c(=O)n([C@H]2C[C@H](O)[C@@H](CO)O2)cc1/C=C/Br [BVDU, (E)-5-(2-bromovinyl)-2′-deoxyuridine] noted as 0

---

- protocol: Plasma concentrations of BVDU, BVU and GEM in patients of the dose finding study (HPLC)
- Assay type: in vivo, human
- applied.conditions: both sexes, human, plasma, po, dose level 12000 mg; 5.0 hr; day 1; oral BVDU; read-out: BVDU plasma concentration, Mean
assay.readout: concentration at 5 h

Recorded concentration at 5 h (molecule O=c1[nH]c(=O)n([C@H]2C[C@H](O)[C@@H](CO)O2)cc1/C=C/Br [BVDU, (E)-5-(2-bromovinyl)-2′-deoxyuridine] ): 2080 ng/mL
